B1: glmS ribozyme (parent)
chain: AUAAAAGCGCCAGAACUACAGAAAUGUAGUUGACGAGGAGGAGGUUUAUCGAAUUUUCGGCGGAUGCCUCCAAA

- Variants of: B1
- Method summary: self-cleavage kobs at 10000 uM GlcN6P; higher = faster cleavage; RNA array
- Cond: with glucosamine-6-phosphate
This sample holds only a part of the variants without activity.
The following ranges of self-cleavage kobs at 10000 uM GlcN6P define the classes used here: label 0 (below 0.0001 s⁻¹), label 1 (0.0001 s⁻¹ to below 0.0003 s⁻¹), label 2 (0.0003 s⁻¹ or more)

Exercise: Which self-cleavage kobs at 10000 uM GlcN6P category applies to G29A G63C here?
Key: label 0

Exercise: Which self-cleavage kobs at 10000 uM GlcN6P category applies to G9U A15C here?
Key: label 0

Exercise: Which self-cleavage kobs at 10000 uM GlcN6P category applies to A15G U46G A48U G59A here?
Key: label 0

Exercise: Which self-cleavage kobs at 10000 uM GlcN6P category applies to A42U U47A here?
Key: label 1

Exercise: Which self-cleavage kobs at 10000 uM GlcN6P category applies to G9C C70U here?
Key: label 0

Exercise: Which self-cleavage kobs at 10000 uM GlcN6P category applies to A12U A42G here?
Key: label 2

Exercise: Which self-cleavage kobs at 10000 uM GlcN6P category applies to C50A G51C U55C G60U here?
Key: label 0

Exercise: Which self-cleavage kobs at 10000 uM GlcN6P category applies to G51U C58U here?
Key: label 0

Exercise: Which self-cleavage kobs at 10000 uM GlcN6P category applies to U46A C70U here?
Key: label 2

Exercise: Which self-cleavage kobs at 10000 uM GlcN6P category applies to A12G G13U U56G C61U C68G C70A here?
Key: label 0

Exercise: Which self-cleavage kobs at 10000 uM GlcN6P category applies to A14U U31G A39C here?
Key: label 2

Exercise: Which self-cleavage kobs at 10000 uM GlcN6P category applies to G9A C61U here?
Key: label 1

Exercise: Which self-cleavage kobs at 10000 uM GlcN6P category applies to U46A G66A here?
Key: label 2

Exercise: Which self-cleavage kobs at 10000 uM GlcN6P category applies to G9A A12U G13C G40C here?
Key: label 0

Exercise: Which self-cleavage kobs at 10000 uM GlcN6P category applies to C11U U30A A48G G59C A64G here?
Key: label 0

Exercise: Which self-cleavage kobs at 10000 uM GlcN6P category applies to G29U A53G C67G here?
Key: label 1

Exercise: Which self-cleavage kobs at 10000 uM GlcN6P category applies to U47A U57G here?
Key: label 0

Exercise: Which self-cleavage kobs at 10000 uM GlcN6P category applies to C16G A53G C67A here?
Key: label 1

Exercise: Which self-cleavage kobs at 10000 uM GlcN6P category applies to C50G A52C U69A here?
Key: label 0

Exercise: Which self-cleavage kobs at 10000 uM GlcN6P category applies to G62A U65G here?
Key: label 0

Exercise: Which self-cleavage kobs at 10000 uM GlcN6P category applies to G37C G63A here?
Key: label 0

Exercise: Which self-cleavage kobs at 10000 uM GlcN6P category applies to A14U A33C G35C U55C here?
Key: label 0

Exercise: Which self-cleavage kobs at 10000 uM GlcN6P category applies to A6C U31G G40U G43A C50G G60C here?
Key: label 0

Exercise: Which self-cleavage kobs at 10000 uM GlcN6P category applies to G13U C16A here?
Key: label 1

Exercise: Which self-cleavage kobs at 10000 uM GlcN6P category applies to G32C U56G here?
Key: label 0

Exercise: Which self-cleavage kobs at 10000 uM GlcN6P category applies to A6U G43A U45G U57A G59U here?
Key: label 0

Exercise: Which self-cleavage kobs at 10000 uM GlcN6P category applies to A6G C16G G40A C50U C70G here?
Key: label 0

Exercise: Which self-cleavage kobs at 10000 uM GlcN6P category applies to G13A U57G here?
Key: label 0

Exercise: Which self-cleavage kobs at 10000 uM GlcN6P category applies to A53G C70U here?
Key: label 2

Exercise: Which self-cleavage kobs at 10000 uM GlcN6P category applies to G62C C67G here?
Key: label 0

Exercise: Which self-cleavage kobs at 10000 uM GlcN6P category applies to A12C G43U here?
Key: label 0

Exercise: Which self-cleavage kobs at 10000 uM GlcN6P category applies to G13C A14G U69G here?
Key: label 0

Exercise: Which self-cleavage kobs at 10000 uM GlcN6P category applies to A39G A64U here?
Key: label 1

Exercise: Which self-cleavage kobs at 10000 uM GlcN6P category applies to A42U G63A here?
Key: label 0

Exercise: Which self-cleavage kobs at 10000 uM GlcN6P category applies to A52C A53G G62C here?
Key: label 0

Exercise: Which self-cleavage kobs at 10000 uM GlcN6P category applies to G13U U56C G62U here?
Key: label 0

Exercise: Which self-cleavage kobs at 10000 uM GlcN6P category applies to U46A C50G here?
Key: label 0

Exercise: Which self-cleavage kobs at 10000 uM GlcN6P category applies to G7C A14G A39C A48G A53U here?
Key: label 0

Exercise: Which self-cleavage kobs at 10000 uM GlcN6P category applies to U30C G40C U49G G51A here?
Key: label 0

Exercise: Which self-cleavage kobs at 10000 uM GlcN6P category applies to C16U U57C here?
Key: label 1

Exercise: Which self-cleavage kobs at 10000 uM GlcN6P category applies to A53U C70G C71G here?
Key: label 0

Exercise: Which self-cleavage kobs at 10000 uM GlcN6P category applies to G41C U54C here?
Key: label 1

Exercise: Which self-cleavage kobs at 10000 uM GlcN6P category applies to U45G C58G here?
Key: label 0

Exercise: Which self-cleavage kobs at 10000 uM GlcN6P category applies to C8U A52G here?
Key: label 0

Exercise: Which self-cleavage kobs at 10000 uM GlcN6P category applies to A12G U47G here?
Key: label 2

Exercise: Which self-cleavage kobs at 10000 uM GlcN6P category applies to G35A U56C A64U here?
Key: label 0

Exercise: Which self-cleavage kobs at 10000 uM GlcN6P category applies to C16G G59C here?
Key: label 0

Exercise: Which self-cleavage kobs at 10000 uM GlcN6P category applies to G29A G35U A42U here?
Key: label 0

Exercise: Which self-cleavage kobs at 10000 uM GlcN6P category applies to A14C U65G C70U here?
Key: label 2

Exercise: Which self-cleavage kobs at 10000 uM GlcN6P category applies to A39C U54C here?
Key: label 2

Exercise: Which self-cleavage kobs at 10000 uM GlcN6P category applies to G13U here?
Key: label 2

Exercise: Which self-cleavage kobs at 10000 uM GlcN6P category applies to A15G U65A G66U here?
Key: label 1

Exercise: Which self-cleavage kobs at 10000 uM GlcN6P category applies to C10A U65G here?
Key: label 0

Exercise: Which self-cleavage kobs at 10000 uM GlcN6P category applies to C16G G35C here?
Key: label 0

Exercise: Which self-cleavage kobs at 10000 uM GlcN6P category applies to A6U G35U A39G C71A here?
Key: label 0

Exercise: Which self-cleavage kobs at 10000 uM GlcN6P category applies to A53U U69G here?
Key: label 0

Exercise: Which self-cleavage kobs at 10000 uM GlcN6P category applies to A15C C68U here?
Key: label 2

Exercise: Which self-cleavage kobs at 10000 uM GlcN6P category applies to G13C G66A here?
Key: label 0

Exercise: Which self-cleavage kobs at 10000 uM GlcN6P category applies to G13A A53G here?
Key: label 2

Exercise: Which self-cleavage kobs at 10000 uM GlcN6P category applies to A12G U31C here?
Key: label 0

Exercise: Which self-cleavage kobs at 10000 uM GlcN6P category applies to A15C G40C here?
Key: label 2

Exercise: Which self-cleavage kobs at 10000 uM GlcN6P category applies to A14C U65G here?
Key: label 2

Exercise: Which self-cleavage kobs at 10000 uM GlcN6P category applies to U47G A52U here?
Key: label 1

Exercise: Which self-cleavage kobs at 10000 uM GlcN6P category applies to A15U U45C here?
Key: label 2

Exercise: Which self-cleavage kobs at 10000 uM GlcN6P category applies to C16A U69C here?
Key: label 1

Exercise: Which self-cleavage kobs at 10000 uM GlcN6P category applies to G41A A53U here?
Key: label 2

Exercise: Which self-cleavage kobs at 10000 uM GlcN6P category applies to C34A C58A here?
Key: label 0

Exercise: Which self-cleavage kobs at 10000 uM GlcN6P category applies to C8G G41U C71U here?
Key: label 0

Exercise: Which self-cleavage kobs at 10000 uM GlcN6P category applies to G32U A52G here?
Key: label 0

Exercise: Which self-cleavage kobs at 10000 uM GlcN6P category applies to G38C U47A here?
Key: label 0

Exercise: Which self-cleavage kobs at 10000 uM GlcN6P category applies to U65C C67U here?
Key: label 0

Exercise: Which self-cleavage kobs at 10000 uM GlcN6P category applies to U30C A39U here?
Key: label 1

Exercise: Which self-cleavage kobs at 10000 uM GlcN6P category applies to G37A G51A here?
Key: label 0

Exercise: Which self-cleavage kobs at 10000 uM GlcN6P category applies to G35C A39C G41U U49G here?
Key: label 0

Exercise: Which self-cleavage kobs at 10000 uM GlcN6P category applies to G7C C68A C71A here?
Key: label 0

Exercise: Which self-cleavage kobs at 10000 uM GlcN6P category applies to A39U A53G here?
Key: label 2

Exercise: Which self-cleavage kobs at 10000 uM GlcN6P category applies to G40A G66U here?
Key: label 1

Exercise: Which self-cleavage kobs at 10000 uM GlcN6P category applies to G13U U57G U65C here?
Key: label 0

Exercise: Which self-cleavage kobs at 10000 uM GlcN6P category applies to G40C G41C here?
Key: label 0

Exercise: Which self-cleavage kobs at 10000 uM GlcN6P category applies to G9U A36C here?
Key: label 0

Exercise: Which self-cleavage kobs at 10000 uM GlcN6P category applies to G29A U47G here?
Key: label 2

Exercise: Which self-cleavage kobs at 10000 uM GlcN6P category applies to C11A A12C U57G C67G here?
Key: label 0

Exercise: Which self-cleavage kobs at 10000 uM GlcN6P category applies to U31C C34U U65C here?
Key: label 0

Exercise: Which self-cleavage kobs at 10000 uM GlcN6P category applies to U31G C67A C71A here?
Key: label 1

Exercise: Which self-cleavage kobs at 10000 uM GlcN6P category applies to U45C A53G here?
Key: label 2

Exercise: Which self-cleavage kobs at 10000 uM GlcN6P category applies to C10G A33C here?
Key: label 0

Exercise: Which self-cleavage kobs at 10000 uM GlcN6P category applies to A15U U49C here?
Key: label 0
